Reported logP values are given for each entry in this list.
assay: octanol‐water partition coefficient (logP) by 19F NMR‐based protocol; type: physicochemical; settings: measured octanol‐water partition coefficient, 19F NMR‐based protocol
Field format: numeric only.

For orientation, consider the following solved cases.
1) CC1C2CC1(C(F)(F)CO)C2 (stereo not shown) [46a]	2.11
2) OCC(F)(F)c1ccccc1 [47b, 2,2‐difluoro‐2‐phenylethan‐1‐ol]	1.57
3) OCC(F)(F)C12CC(C1)C2 [46b]	1.57

# compound Cc1ccccc1C(F)(F)CO [47a, 2,2‐difluoro‐2‐(o‐tolyl)ethan‐1‐ol] ; its logP = 2.03
